Tested on: stationary phase B. burgdorferi
assay-name: Residual viable B. burgdorferi by epifluorescence microscope counting after drug exposure
measurement-parameters: Borreliella burgdorferi, 168 h, read-out: Residual viable cells (Microscopy)
Structures can show the parent of a compound that is named as a salt. Bridge positions count the residues as written; N and C are the ends. Square brackets hold non-standard residues; d marks the D form. Peptide text beside a SMILES is read from it. * marks the point of attachment. Ileψ(thiazoline)Cys = CC[C@H](C)[C@H](N)C1=N[C@H](C(=O)*)CS1; dOrn = NCCC[C@@H](N)C(=O)O
experimental-endpoint: viability at 50 µM (%)
Numbers only, in %.

Recorded viability at 50 µM, per entry:
CC1(C)S[C@@H]2[C@H](NC(=O)[C@H](N)c3ccc(O)cc3)C(=O)N2[C@H]1C(=O)O : 76
C[C@@H]1CC[C@H]2[C@@H](C)C(=O)O[C@@H]3O[C@@]4(C)CC[C@@H]1[C@]32OO4 : 45
C=C(NC(=O)C(=C)NC(=O)c1csc(C2=N[C@@H]3c4csc(n4)[C@H]4NC(=O)c5csc(n5)[C@H]([C@](C)(O)[C@@H](C)O)NC(=O)[C@H]5CSC(=N5)/C(=C/C)NC(=O)[C@H]([C@@H](C)O)NC(=O)c5csc(n5)[C@]3(CC2)NC(=O)[C@H](C)NC(=O)C(=C)NC(=O)[C@H](C)NC(=O)[C@H]([C@@H](C)CC)N[C@@H]2C=Cc3c([C@H](C)O)cc(nc3[C@H]2O)C(=O)O[C@@H]4C)n1)C(N)=O : 66

Consider the molecule CC[C@H](C)[C@H](N)C1=N[C@H](C(=O)N[C@@H](CC(C)C)C(=O)N[C@H](CCC(=O)O)C(=O)N[C@H](C(=O)N[C@H]2CCCCNC(=O)[C@H](CC(N)=O)NC(=O)[C@@H](CC(=O)O)NC(=O)[C@H](Cc3cnc[nH]3)NC(=O)[C@@H](Cc3ccccc3)NC(=O)[C@H]([C@@H](C)CC)NC(=O)[C@@H](CCCN)NC2=O)[C@@H](C)CC)CS1 [Bacitracin, Bacitracin zinc salt] ({Ileψ(thiazoline)Cys}-L[dE]IK[dOrn]I[dF]H[dD]N; lactam 4-C) and give its measured viability at 50 µM. 60

---

System: stationary phase B. burgdorferi
assay-name: Residual viable B. burgdorferi by epifluorescence microscope counting after drug exposure
measurement-parameters: Borreliella burgdorferi, 168 h, read-out: Residual viable cells (Microscopy)
experimental-endpoint: viability at 50 µM

ClC(Cl)=C(Cl)Cl : 53%
OC(Cn1cncn1)(Cn1cncn1)c1ccc(F)cc1F : 45%
O=C(O)[C@@H]1CCC(O)=N1 (racemic) : 45%
Nc1nc2c(ncn2CCC(CO)CO)c(=O)[nH]1 : 60%

// below: viability at 50 µM requested for another molecule
Consider the molecule CO/N=C(\C(=O)N[C@@H]1C(=O)N2C(C(=O)O)=C(COC(N)=O)CS[C@H]12)c1ccco1 and give its measured viability at 50 µM. 49%

Measured values drawn from patent US20190008848A1 for this set.
